Molecular target: CsBGL (Chryseobacterium scophthalmum)
Construct: gene bgl
Sequence (A0A8A3WQK4 19-775): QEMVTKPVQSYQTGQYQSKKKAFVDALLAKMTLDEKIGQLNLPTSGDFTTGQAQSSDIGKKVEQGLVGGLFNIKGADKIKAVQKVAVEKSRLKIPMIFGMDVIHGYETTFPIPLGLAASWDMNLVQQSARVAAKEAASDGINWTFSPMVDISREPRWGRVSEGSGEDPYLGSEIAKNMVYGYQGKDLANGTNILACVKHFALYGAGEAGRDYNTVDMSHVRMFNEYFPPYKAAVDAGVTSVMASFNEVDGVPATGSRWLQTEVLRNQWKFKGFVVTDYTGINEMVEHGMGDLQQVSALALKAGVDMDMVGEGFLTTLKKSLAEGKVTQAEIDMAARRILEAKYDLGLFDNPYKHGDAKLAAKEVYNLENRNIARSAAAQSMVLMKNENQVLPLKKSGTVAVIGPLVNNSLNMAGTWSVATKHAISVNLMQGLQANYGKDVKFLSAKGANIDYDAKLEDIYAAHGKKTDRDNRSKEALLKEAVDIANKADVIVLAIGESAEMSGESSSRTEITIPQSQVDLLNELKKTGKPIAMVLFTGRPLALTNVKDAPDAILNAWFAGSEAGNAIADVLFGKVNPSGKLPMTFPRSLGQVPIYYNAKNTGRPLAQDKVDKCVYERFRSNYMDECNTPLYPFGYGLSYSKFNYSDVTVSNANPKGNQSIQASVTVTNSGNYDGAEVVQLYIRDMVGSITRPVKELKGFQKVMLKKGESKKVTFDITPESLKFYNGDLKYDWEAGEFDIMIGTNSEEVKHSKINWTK
Assay: inhibition of pNP-β-Glc hydrolysis, p-nitrophenol at […] nm
Type: biochemical
Conditions: substrate pNP-β-Glc 0.1–10 mM, glucose 0–80 mM, 50 mM sodium phosphate pH 7.4, 45 °C; mode not stated
readout: Ki (mM)
Supply the numeric figure in mM, leaving out any unit text.

Briefly, Ki measured for OC[C@H]1OC(O)[C@H](O)[C@@H](O)[C@@H]1O (stereo partly shown) : 16.4

Values were extracted from paper PMC8546341.
